# System: SW480
# protocol_notes: cell viability (CellTiter-Glo) relative to plate median (fraction of plate median); higher = more viable cells
# condition_set: 5 µM; treatment time 24 h; reporter: 7TFP
Label satisfied when cell viability < 1; otherwise not satisfied.

INSERT INTO assay_data (compound, category_label) VALUES
  ('O=c1cc(CO)occ1O', 'satisfied'),
  ('C[C@@H]1CC[C@H]2C(C)(C)[C@H]3C[C@@]12CC[C@@]3(C)O', 'not satisfied'),
  ('CCc1cccc2c3c([nH]c12)C(CC)(CC(=O)O)OCC3 (stereo unspecified)', 'satisfied'),
  ('CCCCc1oc2ccccc2c1C(=O)c1cc(I)c(OCCN(CC)CC)c(I)c1', 'satisfied'),
  ('COC1=C(OC)C(=O)C(C/C=C(\C)CC/C=C(\C)CC/C=C(\C)CC/C=C(/C)CC/C=C(\C)CC/C=C(\C)CC/C=C(\C)CC/C=C(\C)CC/C=C(\C)CCC=C(C)C)=C(C)C1=O', 'not satisfied'),
  ('N=C(N)NC(=N)Nc1ccccc1', 'satisfied'),
  ('O=C(O)c1cc2ccccc2[nH]1', 'not satisfied'),
  ('C/C=C/CCC(=O)c1c(C)c(O)c(O)c(C)c1O', 'not satisfied'),
  ('COc1cc2ccc(=O)oc2c(O)c1O', 'satisfied');
